In this section, each of the binders is paired with its reported pIC50.
# target_desc: T1, linear diubiquitin (Boston Biochem) (human, UniProt P0CG48 1-152)
# T1 construct: Bought product
# experimental_details: phage IC50 competition ELISA with soluble linear diubiquitin
pIC50: −log10 of the molar value.
assay_readout: pIC50

[[record]]
binder = "2H5, Fab displayed on phage (Fab, name in Kabat numbering, V domains shown, Light chain mutant of 1E3 (CDR L3); Monovalent Fab on M13 phage) VH: EVQLVESGGGLVQPGGSLRLSCAASGFTFSNTYISWVRQAPGKGLEWVASITPSSGSTDYADSVKGRFTISADTSKNTAYLQMNSLRAEDTAVYYCARTWLLRWVMDYWGQGTLVTVSS VL: DIQMTQSPSSLSASVGDRVTITCRASQDVSTAVAWYQQKPGKAPKLLIYSASFLYSGVPSRFSGSGSGTDFTLTISSLQPEDFATYYCQQSYTNPPTFGQGTKVEIK"
endpoint_result = 7.77

[[record]]
binder = "1F11/3E4 double mutant, Fab displayed on phage (Fab, name in Kabat numbering, V domains shown) VH: EVQLVESGGGLVQPGGSLRLSCAASGFTFSNTYMSWVRQAPGKGLEWVASITPSSGSTDYADSVKGRFTISADTSKNTAYLQMNSLRAEDTAVYYCARTWLLRWVMDYWGQGTLVTVSS VL: DIQMTQSPSSLSASVGDRVTITCRASQDVSTAVAWYQQKPGKAPKLLIYSAKFLYSGVPSRFSGSGSGTDFTLTISSLQPEDFATYYCQQSYTTPPTFGQGTKVEIK"
endpoint_result = 7.92

[[record]]
binder = "2C11/3E4 double mutant, Fab displayed on phage (Fab, name in Kabat numbering, V domains shown) VH: EVQLVESGGGLVQPGGSLRLSCAASGFTFSNTYMSWVRQAPGKGLEWVASITPSSGSTDYADSVKGRFTISADTSKNTAYLQMNSLRAEDTAVYYCARTWLLRWVMDYWGQGTLVTVSS VL: DIQMTQSPSSLSASVGDRVTITCRASQDVSTAVAWYQQKPGKAPKLLIYSASFLYSGVPSRFSGSGSGTDFTLTISSLQPEDFATYYCQQSYTQPPTFGQGTKVEIK"
endpoint_result = 7.62

[[record]]
binder = "2C11/3F5 double mutant, Fab displayed on phage (Fab, name in Kabat numbering, V domains shown) VH: EVQLVESGGGLVQPGGSLRLSCAASGFTFSNTYISWVRQAPGKGLEWVASITPSSGQTDYADSVKGRFTISADTSKNTAYLQMNSLRAEDTAVYYCARTWLLRWVMDYWGQGTLVTVSS VL: DIQMTQSPSSLSASVGDRVTITCRASQDVSTAVAWYQQKPGKAPKLLIYSASFLYSGVPSRFSGSGSGTDFTLTISSLQPEDFATYYCQQSYTQPPTFGQGTKVEIK"
endpoint_result = 8.00


Measured values drawn from patent US20130058955A1 for this set.
